Source: patent US20240025875A1

Below, each entry is listed with its recorded Cmax.
Assay protocol: Pharmacokinetic determination in SD rats (i.v. and i.g.)
Assay type: in vivo
Study conditions: male, Sprague-Dawley (SD), rat, plasma, po, ig, 5 mg/kg
Please provide the amount together with its unit, number first.

Guide cases for Cmax, answers given:
Compound: O=C1c2ccc(Oc3c(Cl)cc(-n4ncc(=O)[nH]c4=O)cc3Cl)cc2CCN1Cc1ccc(F)cc1 [Example 20]
Cmax: 10400 ng/mL
--
Compound: O=C1c2ccc(Oc3c(Cl)cc(-n4ncc(=O)[nH]c4=O)cc3Cl)cc2CCN1Cc1ccc(C(F)(F)F)cc1 [Example 29]
Cmax: 10300 ng/mL
--
Compound: O=C1c2ccc(Oc3c(Cl)cc(-n4ncc(=O)[nH]c4=O)cc3Cl)cc2CCN1Cc1cccnc1 [Example 45]
Cmax: 5320 ng/mL
--
Compound: O=C1c2ccc(Oc3c(Cl)cc(-n4ncc(=O)[nH]c4=O)cc3Cl)cc2CCN1c1cccc(F)c1 [Example 42]
Cmax: 7700 ng/mL
--
Compound: O=C1c2ccc(Oc3c(Cl)cc(-n4ncc(=O)[nH]c4=O)cc3Cl)cc2CCN1Cc1ccccn1 [Example 46]
Cmax: 6410 ng/mL

Exercise: I have this compound here, O=C1c2ccc(Oc3c(Cl)cc(-n4ncc(=O)[nH]c4=O)cc3Cl)cc2CCN1c1ccccc1F [Example 44] , and I need its recorded Cmax.
Key: 9030 ng/mL

Exercise: Quick one: O=C1c2ccc(Oc3c(Cl)cc(-n4ncc(=O)[nH]c4=O)cc3Cl)cc2CCN1Cc1cccc(OC(F)(F)F)c1 [Example 43]
Key: 8120 ng/mL

====

Assay protocol: Pharmacokinetic determination in SD rats (i.v. and i.g.)
Type: in vivo
Study conditions: male, Sprague-Dawley (SD), rat, plasma, po, ig, 5 mg/kg
Cut-off 10000 ng/mL on Cmax: below means label 1, at or above means label 0.

Worked set:
Mol: Cc1ccc(CN2CCc3cc(Oc4c(Cl)cc(-n5ncc(=O)[nH]c5=O)cc4Cl)ccc3C2=O)cc1
Class name: label 1
--
Mol: O=C1c2ccc(Oc3c(Cl)cc(-n4ncc(=O)[nH]c4=O)cc3Cl)cc2CCN1Cc1cccc(C(F)(F)F)c1
Class name: label 1
--
Mol: O=C1c2ccc(Oc3c(Cl)cc(-n4ncc(=O)[nH]c4=O)cc3Cl)cc2CCN1c1ccc(F)cc1
Class name: label 0
--
Mol: O=C1c2ccc(Oc3c(Cl)cc(-n4ncc(=O)[nH]c4=O)cc3Cl)cc2CCN1c1cccnc1
Class name: label 1
--
Mol: O=C1c2ccc(Oc3c(Cl)cc(-n4ncc(=O)[nH]c4=O)cc3Cl)cc2CCN1Cc1ccncc1
Class name: label 1

Okay, next one:
Exercise: Hello, I'm reviewing records and need to know if Cmax of O=C1c2ccc(Oc3c(Cl)cc(-n4ncc(=O)[nH]c4=O)cc3Cl)cc2CCN1Cc1ccc(Cl)cc1 is below 10000 ng/mL. Could you check?
Key: label 0

====

Test system: TRβ (Homo sapiens, UniProt P10828)
Construct: 5 μL of 4×TR beta/alfa-LBD; purchased Invitrogen PV4686
Assay protocol: LanthaScreen TR-FRET Thyroid Receptor beta Coactivator Assay (in vitro binding activity)
Study conditions: TR beta-LBD
Description: 2. Detection of the Binding Activity of the Compound of the Present Invention to TRα or TRβ In Vitro […] The method was experimented with LanthaScreen TR-FRET Thyroid Receptor beta/alfa Coactivator Assay kit. […] After 1 h, BMG LABTECH's PHERAstar FSX microplate reader was used to read the fluorescence value (RFU) at […]. The TR-FRET ratio was calculated by dividing the emission signal at 520 nm by the emission signal at 495 nm. […]
Doc: threshold 0.02 µM (exclusive). Items with EC50 beneath it return Criterion met; others return Criterion not met.

Take a look at these entries with their results.
Compound: COc1cccc(CN2CCc3cc(Oc4c(Cl)cc(-n5ncc(=O)[nH]c5=O)cc4Cl)ccc3C2=O)c1
Class name: Criterion met
//
Compound: N#Cc1nn(-c2cc(Cl)c(Oc3ccc4c(c3)C(=O)NCC4)c(Cl)c2)c(=O)[nH]c1=O
Class name: Criterion not met
//
Compound: O=C1c2ccc(Oc3c(Cl)cc(-n4ncc(=O)[nH]c4=O)cc3Cl)cc2CCN1Cc1cccnc1
Class name: Criterion not met
//
Compound: N#Cc1nn(-c2cc(Cl)c(Oc3ccc4c(c3)CCN(Cc3cccc(F)c3)C4=O)c(Cl)c2)c(=O)[nH]c1=O [Example 31d]
Class name: Criterion not met
//
Compound: O=C1c2ccc(Oc3c(Cl)cc(-n4ncc(=O)[nH]c4=O)cc3Cl)cc2CCN1CC1CCOCC1
Class name: Criterion met

Exercise: Just wondering, is EC50 of N#Cc1nn(-c2cc(Cl)c(Oc3ccc4c(c3)CCN(CO)C4=O)c(Cl)c2)c(=O)[nH]c1=O below 0.02 µM?
Key: Criterion not met

Exercise: Same for COCN1CCc2cc(Oc3c(Cl)cc(-n4nc(C#N)c(=O)[nH]c4=O)cc3Cl)ccc2C1=O
Key: Criterion not met

Exercise: O=C1c2ccc(Oc3c(Cl)cc(-n4ncc(=O)[nH]c4=O)cc3Cl)cc2CCN1c1ccc(F)cc1 , same question.
Key: Criterion met

Exercise: Also check O=C1c2ccc(Oc3c(Cl)cc(-n4ncc(=O)[nH]c4=O)cc3Cl)cc2CCN1Cc1ccccc1
Key: Criterion met

Exercise: Continue with O=C1c2ccc(Oc3c(Cl)cc(-n4ncc(=O)[nH]c4=O)cc3Cl)cc2CCN1Cc1cccnn1
Key: Criterion not met

Exercise: What do we get for O=C1c2ccc(Oc3c(Cl)cc(-n4ncc(=O)[nH]c4=O)cc3Cl)cc2CCN1c1cccc(F)c1 ?
Key: Criterion met

Exercise: Please do the same for Cc1cc(-n2nc(C#N)c(=O)[nH]c2=O)cc(C)c1Oc1ccc2c(c1)CCNC2=O as well.
Key: Criterion not met

Exercise: Query N#Cc1nn(-c2cc(Cl)c(Oc3ccc4c(c3)NC(=O)CC4)c(Cl)c2)c(=O)[nH]c1=O next
Key: Criterion not met

Exercise: For N#Cc1nn(-c2cc(Cl)c(Oc3ccc4c(c3)CCN(c3ccc(F)cc3)C4=O)c(Cl)c2)c(=O)[nH]c1=O [Example 28g] then?
Key: Criterion not met

Exercise: Now the same for O=C1c2ccc(Oc3c(Cl)cc(-n4ncc(=O)[nH]c4=O)cc3Cl)cc2CCN1Cc1cc(F)cc(F)c1
Key: Criterion met

====

Item-by-item account of EC50
Test system: TRα (Homo sapiens, UniProt P10827)
Construct: 5 μL of 4×TR beta/alfa-LBD; purchased Invitrogen PV4687
Sequence (P10827 163-410 isoform P10827-2 limits assumed, other chains not shown): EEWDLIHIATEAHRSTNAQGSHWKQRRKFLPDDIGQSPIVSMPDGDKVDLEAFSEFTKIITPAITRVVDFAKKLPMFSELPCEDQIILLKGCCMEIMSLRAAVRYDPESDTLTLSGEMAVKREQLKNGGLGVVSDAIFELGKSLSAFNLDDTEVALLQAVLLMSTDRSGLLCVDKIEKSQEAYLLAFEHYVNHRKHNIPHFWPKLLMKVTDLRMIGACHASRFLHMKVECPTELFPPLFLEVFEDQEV
Assay protocol: LanthaScreen TR-FRET Thyroid Receptor alfa Coactivator Assay (in vitro binding activity)
Study conditions: TR alfa-LBD
Report as a plain number; the unit µM is understood.

Mol: Cc1cc(-n2nc(C#N)c(=O)[nH]c2=O)cc(C)c1Oc1ccc2c(c1)CCNC2=O
EC50 (µM): 7.04
//
Mol: CCOCN1CCc2cc(Oc3c(Cl)cc(-n4nc(C#N)c(=O)[nH]c4=O)cc3Cl)ccc2C1=O
EC50 (µM): 0.21

Exercise: # EC50 lookup, item N#Cc1nn(-c2cc(Cl)c(Oc3ccc4c(c3)CCN(COCC(F)(F)F)C4=O)c(Cl)c2)c(=O)[nH]c1=O
Key: 0.226

Exercise: Another compound: COc1cccc(CN2CCc3cc(Oc4c(Cl)cc(-n5ncc(=O)[nH]c5=O)cc4Cl)ccc3C2=O)c1
Key: 0.079

Exercise: What about this compound? O=C1c2ccc(Oc3c(Cl)cc(-n4ncc(=O)[nH]c4=O)cc3Cl)cc2CCN1c1nccs1
Key: 0.23

Exercise: Now the same for Cc1ccc(F)cc1CN1CCc2cc(Oc3c(Cl)cc(-n4ncc(=O)[nH]c4=O)cc3Cl)ccc2C1=O
Key: 0.179

Exercise: // next record COCN1CCc2cc(Oc3c(Cl)cc(-n4nc(C#N)c(=O)[nH]c4=O)cc3Cl)ccc2C1=O
Key: 0.29

Exercise: Then this compound: O=C1c2ccc(Oc3c(Cl)cc(-n4ncc(=O)[nH]c4=O)cc3Cl)cc2CCN1Cc1ccccc1F
Key: 0.156

====

Test system: TRβ (Homo sapiens, UniProt P10828)
Construct: 5 μL of 4×TR beta/alfa-LBD; purchased Invitrogen PV4686
Sequence (P10828 217-461 limits assumed): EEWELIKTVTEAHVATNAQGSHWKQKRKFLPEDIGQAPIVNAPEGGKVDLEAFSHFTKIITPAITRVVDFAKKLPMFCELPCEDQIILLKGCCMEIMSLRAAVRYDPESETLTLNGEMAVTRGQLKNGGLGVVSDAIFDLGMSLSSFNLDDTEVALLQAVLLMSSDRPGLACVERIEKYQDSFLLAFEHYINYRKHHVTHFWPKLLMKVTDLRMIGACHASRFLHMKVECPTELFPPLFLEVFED
Assay protocol: LanthaScreen TR-FRET Thyroid Receptor beta Coactivator Assay (in vitro binding activity)
Study conditions: TR beta-LBD
# EC50 per entry
Give just the number in µM; leave the unit off.

// worked examples, EC50 included
Molecule: O=C1c2ccc(Oc3c(Cl)cc(-n4ncc(=O)[nH]c4=O)cc3Cl)cc2CCN1Cc1ccc(F)cc1 [Example 20]
Test system: TRβ (Homo sapiens, UniProt P10828)
U: µM
EC50: 0.012
//
Molecule: N#Cc1nn(-c2cc(Cl)c(Oc3ccc4c(c3)CCN(COCC(F)F)C4=O)c(Cl)c2)c(=O)[nH]c1=O [Example 15]
Test system: TRβ (Homo sapiens, UniProt P10828)
U: µM
EC50: 0.024
//
Molecule: N#Cc1nn(-c2cc(Cl)c(Oc3ccc4c(c3)CCN(Cc3ccc(F)cc3)C4=O)c(Cl)c2)c(=O)[nH]c1=O [Example 20d]
Test system: TRβ (Homo sapiens, UniProt P10828)
U: µM
EC50: 0.534
//
Molecule: O=C1c2ccc(Oc3c(Cl)cc(-n4ncc(=O)[nH]c4=O)cc3Cl)cc2CCN1Cc1ccc(Cl)cc1 [Example 37]
Test system: TRβ (Homo sapiens, UniProt P10828)
U: µM
EC50: 0.043
//
Molecule: Cc1ccc(CN2CCc3cc(Oc4c(Cl)cc(-n5nc(C#N)c(=O)[nH]c5=O)cc4Cl)ccc3C2=O)cc1 [Example 21d]
Test system: TRβ (Homo sapiens, UniProt P10828)
U: µM
EC50: 0.368
//
Molecule: O=C1c2ccc(Oc3c(Cl)cc(-n4ncc(=O)[nH]c4=O)cc3Cl)cc2CCN1c1nccs1 [Example 52]
Test system: TRβ (Homo sapiens, UniProt P10828)
U: µM
EC50: 0.016

Exercise: Requested read-out EC50, target or system TRβ (Homo sapiens, UniProt P10828), entry CC(C)OCN1CCc2cc(Oc3c(Cl)cc(-n4nc(C#N)c(=O)[nH]c4=O)cc3Cl)ccc2C1=O [Example 13]
Key: 0.013
